Species: Rattus norvegicus
Test: Open TG-GATES - Regimen: Single
Format: toxicity, organism-based, Sprague-Dawley
Parameters: regimen Single, gender Male, age 6 weeks
Conditions: in vivo, po, 0 mg/kg, 9 h, tissue Plasma, route gavage, dose level Control
Use 70 IU/L as the dividing line for AST, with the line itself on the t side and lower values as f.

Study these solved cases before continuing.
1. CN1C(=O)OC(C)(C)C1=O [TRIMETHADIONE] ... t
2. Oc1ncnc2[nH]ncc12 [ALLOPURINOL] ... f
3. C[C@](N)(Cc1ccc(O)c(O)c1)C(=O)O [METHYLDOPA] ... t

# next compound below
Could you verify whether the entry CC(C)C(=O)Nc1ccc([N+](=O)[O-])c(C(F)(F)F)c1 [FLUTAMIDE] shows AST of no less than 70 IU/L?
f

###

Entries and their measured Bas follow.
Species: Rattus norvegicus
Assay: Open TG-GATES - Regimen: Daily Repeat
Format: toxicity, organism-based, Sprague-Dawley
Set-up: regimen Daily Repeat, gender Male, age 6 weeks
Settings: in vivo, po, 300 mg/kg, […], tissue Blood, route gavage, dose level Middle, time 14 day
The reply should be a number in %, with the unit left off.

The cases that follow already have their Bas on record.
1. O=C(O)c1cccnc1 ... 0
2. CCN1CCCC1CNC(=O)c1cc(S(N)(=O)=O)ccc1OC (centres undefined) [SULPIRIDE] ... 0.2
3. CC(C)(S)[C@@H](N)C(=O)O ... 0.2

Consider the record given below.
Recorded Bas for O=C(N[C@H](CO)[C@H](O)c1ccc([N+](=O)[O-])cc1)C(Cl)Cl , please?
0

###

KIDNEY_TOTAL values, listed per item
Species: Rattus norvegicus
Experiment: Open TG-GATES - Regimen: Single
Format: toxicity, organism-based, Sprague-Dawley
Set-up: regimen Single, gender Male, age 6 weeks
Details: in vivo, po, 0 mg/kg, 24 h, tissue Kidney, route gavage, dose level Control
State just the number; it will be interpreted in g.

Some compounds with known KIDNEY_TOTAL results, for comparison:
1. C[C@](N)(Cc1ccc(O)c(O)c1)C(=O)O ... 1.8
2. Oc1ncnc2[nH]ncc12 ... 2

I would be grateful if you could share the reported KIDNEY_TOTAL for Nc1nc(N)c2nc(-c3ccccc3)c(N)nc2n1 .
2

What value of measured KIDNEY_TOTAL is listed for CC(=N)S [THIOACETAMIDE] ?
1.8

Return reported KIDNEY_TOTAL; argument: CCN1CCCC1CNC(=O)c1cc(S(N)(=O)=O)ccc1OC (stereo not given) [SULPIRIDE]
1.8

Look at this compound and give its reported KIDNEY_TOTAL. CCSCC[C@H](N)C(=O)O
2

Give its KIDNEY_TOTAL value. Item: CCC(C)(C)C(=O)O[C@H]1C[C@@H](C)C=C2C=C[C@H](C)[C@H](CC[C@@H]3C[C@@H](O)CC(=O)O3)[C@H]21
2

Fill in: KIDNEY_TOTAL of C#C[C@]1(O)CC[C@H]2[C@@H]3CCc4cc(O)ccc4[C@H]3CC[C@@]21C is ___
1.7

Quick check: KIDNEY_TOTAL of C[C@]12CCC(=O)C=C1CC[C@@H]1[C@@H]2CC[C@@]2(C)[C@H]1CC[C@]2(C)O ?
1.9

Quick one: KIDNEY_TOTAL of CCc1oc2ccccc2c1C(=O)c1cc(I)c(O)c(I)c1 ?
2
